- Tested on: Phosphorylation of STAT6 in human PBMC (CD19+ B cells)
- METHOD_SUMMARY: Phosphorylated STAT6 (pSTAT6) flow cytometry assay in human PBMC, IL-4 stimulated
- Format: cell-based
- TEST_CONTEXT: compound 1 hour, 1 ng/ml IL-4 for 15 minutes, read-out: STAT6 IL4 pSTAT6 assay in PBMC: Average IC50
EXPERIMENTAL_ENDPOINT: IC50

Example entries begin here.
COMPOUND | DATA_VALUE
CN(C)C(=O)c1cc2cc(C3=CCCN(C(=O)Cc4ccccc4)C3)ccc2o1 | > 100 µM
CCNC(Cn1ccnn1)C(=O)N1CCC=C(c2ccc3oc(C(=O)N(C)C)cc3c2)C1 (stereo not drawn) | > 100 µM

QUERY: What value of IC50 has been recorded for this entry: `Cc1ccccc1OCc1ccccc1C(=O)N1CCC=C(c2ccc3cc(C(=O)N(C)C)[nH]c3c2)C1`
RESULT: 1 to 10 µM

----------
For each record, write down the corresponding pIC50.
- Tested on: Phosphorylation of STAT6 in human PBMC (CD19+ B cells)
- METHOD_SUMMARY: Phosphorylated STAT6 (pSTAT6) flow cytometry assay in human PBMC, IL-4 stimulated
- Format: cell-based
- TEST_CONTEXT: compound 1 hour, 1 ng/ml IL-4 for 15 minutes, read-out: STAT6 IL4 pSTAT6 assay in PBMC: Average IC50
pIC50: −log10 of the molar value.

Example entries begin here.
COMPOUND | SYSTEM_TESTED | pIC50
CCN[C@H](Cn1ccnn1)C(=O)N1CCC=C(c2ccc3oc(C(=O)N(C)C)cc3c2)C1 [Example I-169] | Phosphorylation of STAT6 in human PBMC (CD19+ B cells) | < 4.00
CC(=O)N1CCN(c2cc(C3=CCCN(C(=O)CCn4ccnn4)C3)cc3cc(C(=O)N(C)C)oc23)CC1 [Example I-207] | Phosphorylation of STAT6 in human PBMC (CD19+ B cells) | < 4.00
CN(C)C(=O)c1cc2ccc(C3=CCCN(C(=O)CCn4nncc4CO)C3)cc2[nH]1 [Example I-13] | Phosphorylation of STAT6 in human PBMC (CD19+ B cells) | 6.00 to 7.00

The record that follows has no pIC50 shown yet.
QUERY: Form entry - test system: Phosphorylation of STAT6 in human PBMC (CD19+ B cells); read-out: pIC50; compound: CN(C)C(=O)c1cc2cc(C3=CCCN(C(=O)CCn4ccnn4)C3)ccc2s1 [Example I-243]
RESULT: < 4.00

----------
- System: Phosphorylation of STAT6 in human PBMC (CD19+ B cells)
- METHOD_SUMMARY: Phosphorylated STAT6 (pSTAT6) flow cytometry assay in human PBMC, IL-4 stimulated
- Type: cell-based
- TEST_CONTEXT: compound 1 hour, 1 ng/ml IL-4 for 15 minutes, read-out: STAT6 IL4 pSTAT6 assay in PBMC: Average IC50
For each record, write down the corresponding IC50.

MOLECULE | SYSTEM_TESTED | IC50
CN(C)C(=O)c1cc2cc(C3=CCCN(C(=O)Cc4ccc5nccnc5c4)C3)ccc2o1 [Example I-297] | Phosphorylation of STAT6 in human PBMC (CD19+ B cells) | > 100 µM
CC(=O)N1Cc2ccccc2CC1C(=O)N1CCC=C(c2ccc3oc(C(=O)N(C)C)cc3c2)C1 (stereo not drawn) [Example I-232] | Phosphorylation of STAT6 in human PBMC (CD19+ B cells) | > 100 µM
CN(C)C(=O)c1cc2cc(C3=CCCN(C(=O)Cc4nc5ccccc5s4)C3)ccc2o1 [Example I-221] | Phosphorylation of STAT6 in human PBMC (CD19+ B cells) | > 100 µM
CN(C)C(=O)c1cc2cc(C3=CCCN(C(=O)CCc4cncnc4)C3)ccc2o1 [Example I-272] | Phosphorylation of STAT6 in human PBMC (CD19+ B cells) | > 100 µM
CN(C)C(=O)c1cc2cc(C3=CCCN(C(=O)CCn4ccnn4)C3)cnc2s1 [Example I-244] | Phosphorylation of STAT6 in human PBMC (CD19+ B cells) | > 100 µM

List reported IC50 for each of these molecules:
1. CN(C)C(=O)c1cc2ccc(C3=CCCN(C(=O)CCc4cccc(C#N)c4)C3)cc2[nH]1 [Example I-63]
2. CN(C)C(=O)c1cc2cc(C3=CCCN(C(=O)C4Cc5c(N)cccc5CN4C=O)C3)ccc2o1 (stereo not drawn) [Example I-8]
3. CN(C)C(=O)c1cc2ccc(C3=CCCN(C(=O)C4CC4F)C3)cc2[nH]1 (stereo not drawn) [Example I-25]

RESULT:
1: > 100 µM; 2: 0.1 to 1 µM; 3: > 100 µM

List reported IC50 for each of these molecules:
1. CN(C)C(=O)c1cc2ccc(C3=CCCN(C(=O)c4cccnc4SCc4ccccc4)C3)cc2[nH]1 [Example I-95]
2. CC1CCCN(C(=O)c2cc3ccc(C4=CCCN(C(=O)CCn5ccnn5)C4)cc3[nH]2)C1 (stereo not drawn) [Example I-127]

RESULT:
1: > 100 µM; 2: 10 to 100 µM

----------
- Test system: Phosphorylation of STAT6 in human PBMC (CD19+ B cells)
- METHOD_SUMMARY: Phosphorylated STAT6 (pSTAT6) flow cytometry assay in human PBMC, IL-4 stimulated
- Format: cell-based
- TEST_CONTEXT: compound 1 hour, 1 ng/ml IL-4 for 15 minutes, read-out: STAT6 IL4 pSTAT6 assay in PBMC: Average IC50
- Experimental: Example 2. Phosphorylated STAT6 (pSTAT6) Flow Cytometry Assay in Human PBMC Phosphorylation of STAT6 in human PBMC was quantitatively measured using flow cytometry technology. […] Cells were then washed once with FACS buffer and resuspended in 200 μl of FACS buffer for flow cytometry to quantify pSTAT6 in CD19+ B cells. The data was analyzed by GraphPad Prism and the dose dependent pSTAT6 inhibition was fit using the four-parameter inhibitor vs. response nonlinear regression.
For each record, write down the corresponding IC50.

Example entries begin here.
COMPOUND | EXPERIMENTAL_ENDPOINT | DATA_VALUE
O=C(CCn1ccnn1)N1CCC=C(c2ccc3cc(C(=O)N4CCCC4)[nH]c3c2)C1 [Example I-124] | IC50 | > 100 µM
CN(C)C(=O)c1cc2cc(C3=CCCN(C(=O)Cc4ccc5c(c4)OCCO5)C3)ccc2o1 [Example I-306] | IC50 | > 100 µM
CC(=O)NC(Cc1cccc(F)c1)C(=O)N1CCC=C(c2ccc3cc(C(=O)N(C)C)[nH]c3c2)C1 (stereo not drawn) [Example I-82] | IC50 | 10 to 100 µM

List reported IC50 for each of these compounds:
1. CN(C)C(=O)c1cc2cc(C3=CCCN(C(=O)CCn4cnc5ccccc54)C3)ccc2o1 [Example I-265]
2. CN(C)C(=O)c1nc2ccc(C3=CCCN(C(=O)C4Cc5ccccc5CN4C=O)C3)cc2[nH]1 (stereo not drawn) [Example I-198]
3. CN(C)C(=O)c1cc2ccc(C3=CCCN(C(=O)c4ccccc4-c4ccccc4C(=O)O)C3)cc2[nH]1 [Example I-105]
4. C[C@@H](O)C(=O)N1CCC=C(c2ccc3cc(C(=O)N(C)C)[nH]c3c2)C1 [Example I-24]
5. CN(C)C(=O)c1cc2ccc(C3=CCCN(C(=O)CCS(=O)(=O)c4ccccc4)C3)cc2[nH]1 [Example I-66]
6. CN(C)C(=O)c1cc2c(F)c(C3=CCCN(C(=O)CCn4ccnn4)C3)ccc2o1 [Example I-323]
7. CNc1ccc(-c2cc(C3=CCCN(C(=O)CCn4ccnn4)C3)cc3[nH]c(C(=O)N(C)C)cc23)c(C)c1 [Example I-114]

RESULT:
["> 100 µM", "> 100 µM", "10 to 100 µM", "10 to 100 µM", "1 to 10 µM", "0.1 to 1 µM", "0.1 to 1 µM"]

----------
For each record, write down the corresponding pIC50.
- System: Phosphorylation of STAT6 in human PBMC (CD19+ B cells)
- METHOD_SUMMARY: Phosphorylated STAT6 (pSTAT6) flow cytometry assay in human PBMC, IL-4 stimulated
- Type: cell-based
- TEST_CONTEXT: compound 1 hour, 1 ng/ml IL-4 for 15 minutes, read-out: STAT6 IL4 pSTAT6 assay in PBMC: Average IC50
pIC50: −log10 of the molar value.

Example entries begin here.
COMPOUND | SYSTEM_TESTED | DATA_VALUE
CN(C)C(=O)c1cc2ccc(C3=CCCN(C(=O)C(O)Cc4ccccc4)C3)cc2[nH]1 (centres unmarked) [Example I-52] | Phosphorylation of STAT6 in human PBMC (CD19+ B cells) | 4.00 to 5.00
CN(C)C(=O)c1cc2ccc(C3=CCCN(C(=O)C4ON=C(c5ccccc5)O4)C3)cc2[nH]1 (centres unmarked) | Phosphorylation of STAT6 in human PBMC (CD19+ B cells) | 4.00 to 5.00
CN(C)C(=O)c1cc2cc(C3=CCCN(C(=O)Cc4cnc5ccccn45)C3)ccc2o1 | Phosphorylation of STAT6 in human PBMC (CD19+ B cells) | < 4.00
CN(C)C(=O)c1cc2ccc(C3=CCCN(C(=O)[C@@H](Cn4ccnn4)c4cccc(O)c4)C3)cc2[nH]1 | Phosphorylation of STAT6 in human PBMC (CD19+ B cells) | < 4.00
CN(C)C(=O)c1cc2ccc(C3=CCCN(C(=O)Cn4ccnn4)C3)cc2[nH]1 | Phosphorylation of STAT6 in human PBMC (CD19+ B cells) | 4.00 to 5.00

List reported pIC50 for each of these compounds:
1. O=C(NCCO)c1cc2cc(C3=CCCN(C(=O)CCn4ccnn4)C3)ccc2o1
2. CC(C(=O)N1CCC=C(c2ccc3cc(C(=O)N(C)C)[nH]c3c2)C1)n1ccccc1=O (centres unmarked)
3. CN(C)C(=O)c1cc2ccc(C3=CCCN(C(=O)CCc4ccno4)C3)cc2[nH]1

RESULT:
1: < 4.00; 2: 5.00 to 6.00; 3: < 4.00
